tested on: MS2 coat protein; test: apparent KD of MS2 coat protein; designed switch direction (-1 OFF switch, 1 ON switch): -1; higher = weaker reporter binding; conditions: input ligand: FMN 200 uM
Measured apparent KD of MS2 coat protein by item
Report as: number unit

Worked set:
• AAAAAGCUGAGAGGAUAUGGUGCCGAAACGGUGCUAGAAGGCUUUGCAAAAAAACAUGAGGAUCACCCAUGUUCAUGUAGAGAA [AK ExNG1-1.2] (Eterna round: R96, puzzle: Exclusion NG 1) = 15.8 nM
• AACCAACAUGAGGAUCACCCAUGUGAGGAUAUAGCUAACGACCAGACCUGGAAUGUUGUUAGAAGGUGCAGGGU [Eternabot (Original) Solution 4] (Eterna round: R97, puzzle: Exclusion 1) = 44.4 nM
• UACAUGAGGAUCACCCAUGUUUUGUCGUGUAUGGUAUUUAUCUAGGAUAUCAUUUUAUUUGGUUAUGAGAAGGAGAAUAUUAAU [JMF's solution 92] (Eterna round: R96, puzzle: Exclusion NG 3) = 24.1 nM
• GGCACACAUGAGGAUCACCCAUGUGAGGAUAUGUGGCGAUCGUCGAAAGACGAUAGCCACAGAAGGCACAGGCC [Eli x1 4.24] (Eterna round: R97, puzzle: Exclusion 1) = 21.4 nM

Query: Report value: apparent KD of MS2 coat protein, system: MS2 coat protein, sequence: ACAGUGUUAGGAUAUGUGUGAGUUAGUCUCGACUAGUCGAUGCAGAAGGAACAUGAGGAUCACCCAUGUAGAUC [EX4 #80] (Eterna round: R97, puzzle: Exclusion 4)
Reply: 136 nM

Data credit: the supplement of paper PMC9170038
